PROTOCOL SUMMARY: In vitro stability (half-life) in phosphate buffered saline (PBS) pH 7.4
Format: physicochemical
CONDITION DESCRIPTION: pH 7.4, 5 μM, PBS pH 7.4, 37° C., read-out: T1/2 (minutes) PBS
MEASUREMENT TYPE: half-life at 5 μM (min)

Below, each entry is followed by its recorded half-life at 5 μM result.
COMPOUND	UNITS TEXT	half-life at 5 μM
Cc1nn(C)c(Cl)c1S(=O)(=O)NO	min	385
COc1ccc2cc(S(=O)(=O)NO)oc2c1	min	42
COc1ccccc1S(=O)(=O)NO [Compound 25, N-Hydroxy-2-methoxybenzene-1-sulfonamide]	min	86

a = CC(C)NC(=O)c1cc(S(=O)(=O)NO)cs1
b = Cc1ccc(F)c(S(=O)(=O)NO)c1
Which gives the smaller half-life at 5 μM number: a or b ? Field: selected label. Fill in the label of the entry you choose.
b
(b: 34 min, a: 136 min)

====

Measured Relative N2O Yield (90 minutes incubation) by item
PROTOCOL SUMMARY: HNO production determined via N2O quantification (GC headspace analysis)
Assay type: physicochemical
CONDITION DESCRIPTION: PBS, 37° C., 90 minutes incubation
Respond with the bare value in %.

Cc1ccc(F)c(S(=O)(=O)NO)c1 72
O=S(=O)(NO)c1ccc(-c2cc(C(F)(F)F)on2)s1 51
Cc1cc(S(=O)(=O)NO)c(C)s1 13

Bench note: what Relative N2O Yield (90 minutes incubation) did "Cc1nn(C)c(Cl)c1S(=O)(=O)NO" show?
27

Bench note: what Relative N2O Yield (90 minutes incubation) did "CC(C)NC(=O)c1ccc(S(=O)(=O)NO)s1" show?
85

Bench note: what Relative N2O Yield (90 minutes incubation) did "O=S(=O)(NO)c1ccc(-c2ccon2)s1" show?
81

====

PROTOCOL SUMMARY: In vitro stability (half-life) in human plasma
Type: in vitro ADME
CONDITION DESCRIPTION: male, human plasma pH 7.4 with anticoagulant, 37° C., read-out: T1/2 (minutes) Human
MEASUREMENT TYPE: half-life at 5 μM (min)

COMPOUND	MEASUREMENT TYPE	UNITS TEXT	MEASURED VALUE
Cc1ccc(S(=O)(=O)NO)s1 [Compound 84]	half-life at 5 μM	min	60
O=S(=O)(NO)c1cccnc1 [Compound 26, N-Hydroxypyridine-3-sulfonamide]	half-life at 5 μM	min	45
O=S(=O)(NO)c1cccc(OC(F)(F)F)c1 [Compound 92]	half-life at 5 μM	min	40
Cc1oncc1S(=O)(=O)NO [Compound 3]	half-life at 5 μM	min	71
O=S(=O)(NO)c1ccc(Cl)s1 [Compound 86]	half-life at 5 μM	min	18
O=S(=O)(NO)c1ccco1 [Compound 83, N-Hydroxyfuran-2-sulfonamide]	half-life at 5 μM	min	16

A = CC(C)NC(=O)c1cc(S(=O)(=O)NO)cs1 [Compound 5]
B = Cc1noc(C)c1S(=O)(=O)NO [Compound 27]
C = CS(=O)(=O)c1ccc(S(=O)(=O)NO)cc1 [Compound 93]
Hey, quick one: sort these by half-life at 5 μM, largest value first please. Answer with the labels in sequence, matching the requested order.
B, C, A
(B: 99 min, C: 35 min, A: 24 min)

====

Measured NOAEL (μg/kg/min) (molar equivalent to CXL-1020) by item
Tested on: dogs
PROTOCOL SUMMARY: Canine implanted central catheter 72 hour continuous infusion model (clinical and microscopic pathology of vasculature)
Format: in vivo
CONDITION DESCRIPTION: based on microscopic pathology markers (edema, hemorrhage, vascular and perivascular inflammation)

MOLECULE	MEASURED VALUE
CS(=O)(=O)c1cccc(S(=O)(=O)NO)c1	≥180 µg/kg/min
O=S(=O)(NO)c1ccco1 [Compound 83, N-Hydroxyfuran-2-sulfonamide]	≥90 µg/kg/min
Cc1ccc(S(=O)(=O)NO)s1	≥60 µg/kg/min

API: value(readout=NOAEL (μg/kg/min) (molar equivalent to CXL-1020), system=dogs) for record "Cn1ccc(S(=O)(=O)NO)n1"
≥180 µg/kg/min

API: value(readout=NOAEL (μg/kg/min) (molar equivalent to CXL-1020), system=dogs) for record "O=S(=O)(NO)c1ccc(Cl)s1"
≥180 µg/kg/min

API: value(readout=NOAEL (μg/kg/min) (molar equivalent to CXL-1020), system=dogs) for record Cc1ccc(S(=O)(=O)NO)o1 [Compound 1, N-Hydroxy-5-methylfuran-2-sulfonamide]
≥180 µg/kg/min

API: value(readout=NOAEL (μg/kg/min) (molar equivalent to CXL-1020), system=dogs) for record CS(=O)(=O)c1ccccc1S(=O)(=O)NO [CXL-1020, reference compound]
<3 µg/kg/min

====

PROTOCOL SUMMARY: In vitro stability (half-life) in rat plasma
Type: in vitro ADME
CONDITION DESCRIPTION: male, rat, plasma, pH 7.4, 5 μM, rat plasma pH 7.4 with anticoagulant, 37° C.; read-out: T1/2 (minutes) Rat
MEASUREMENT TYPE: half-life at 5 μM (min)

COMPOUND	UNITS TEXT	half-life at 5 μM
O=C(c1ccc(S(=O)(=O)NO)s1)N1CCOCC1 [Compound 21]	min	36

I = CC(C)NC(=O)c1ccc(S(=O)(=O)NO)s1 [Compound 22]
II = O=S(=O)(NO)c1cccc(OC(F)(F)F)c1 [Compound 92]
Pick one: I or II . Which has the bigger half-life at 5 μM number? Field: selected label. Fill in the label of the entry you choose.
II

====

Measured NOAEL (μg/kg/min) (actual) by item
Tested on: beagle dogs
PROTOCOL SUMMARY: Canine peripheral vein toxicity model, 24 hour infusion (clinical pathology markers of inflammation: WBC, fibrinogen, CRP)
Type: in vivo
CONDITION DESCRIPTION: based on clinical pathology markers (WBC, fibrinogen, CRP); 24 hour infusion; CAPTISOL 7% w/v, pH 4
Respond with the bare value in µg/kg/min.

COMPOUND	UNITS TEXT	NOAEL (μg/kg/min) (actual)
Cn1ccc(S(=O)(=O)NO)n1	µg/kg/min	3
Cc1ccc(S(=O)(=O)NO)s1	µg/kg/min	10

Bench note: what NOAEL (μg/kg/min) (actual) did "CS(=O)(=O)c1cccc(S(=O)(=O)NO)c1" show?
3

Bench note: what NOAEL (μg/kg/min) (actual) did O=S(=O)(NO)c1ccco1 [Compound 83, N-Hydroxyfuran-2-sulfonamide] show?
3

Bench note: what NOAEL (μg/kg/min) (actual) did "O=S(=O)(NO)c1ccc(Cl)s1" show?
3

====

Measured Tau by item
Test system: heart failure canines
PROTOCOL SUMMARY: Hemodynamic efficacy in heart failure canines (tachycardia-pacing model)
Assay type: in vivo, beagle dogs
CONDITION DESCRIPTION: heart failure canines; i.v. infusion; Dose Rate (μmol/kg/min): CXL-1020 100, (1) 75, (2) 100, (83) 65, (84) 77
Respond with the bare value in % Change from Baseline.

Below, each entry is followed by its recorded Tau result.
MOLECULE	UNITS TEXT	Tau
CS(=O)(=O)c1ccccc1S(=O)(=O)NO [CXL-1020, reference compound]	% Change from Baseline	−17.27
O=S(=O)(NO)c1ccco1 [Compound 83, N-Hydroxyfuran-2-sulfonamide]	% Change from Baseline	−18.32
Cc1ccc(S(=O)(=O)NO)o1 [Compound 1, N-Hydroxy-5-methylfuran-2-sulfonamide]	% Change from Baseline	−16

Bench note: what Tau did "Cc1ccc(S(=O)(=O)NO)s1" show?
15.61

Bench note: what Tau did "CS(=O)(=O)c1cccc(S(=O)(=O)NO)c1" show?
−12.51

====

System: heart failure canines
PROTOCOL SUMMARY: Hemodynamic efficacy in heart failure canines (tachycardia-pacing model)
Assay type: in vivo, beagle dogs
CONDITION DESCRIPTION: heart failure canines; i.v. infusion; Dose Rate (μmol/kg/min): CXL-1020 100, (1) 75, (2) 100, (83) 65, (84) 77
Measured SW by item
Respond with the bare value in % Change from Baseline.

Below, each entry is followed by its recorded SW result.
MOLECULE	MEASUREMENT TYPE	MEASURED VALUE
CS(=O)(=O)c1cccc(S(=O)(=O)NO)c1 [Compound 2]	SW	−9.41
Cc1ccc(S(=O)(=O)NO)o1 [Compound 1, N-Hydroxy-5-methylfuran-2-sulfonamide]	SW	10
Cc1ccc(S(=O)(=O)NO)s1 [Compound 84]	SW	−5.96
CS(=O)(=O)c1ccccc1S(=O)(=O)NO [CXL-1020, reference compound]	SW	−12.01

Attention now shifts to the item below.
Bench note: what SW did O=S(=O)(NO)c1ccco1 [Compound 83, N-Hydroxyfuran-2-sulfonamide] show?
−9.63

====

Measured Relative N2O Yield (90 minutes incubation) by item
PROTOCOL SUMMARY: HNO production determined via N2O quantification (GC headspace analysis)
Format: physicochemical
CONDITION DESCRIPTION: PBS, 37° C., 90 minutes incubation
Protocol: Nitrous oxide (N2O) is produced via the dimerization and dehydration of HNO, and is the most common marker for nitroxyl production (Fukuto et al., Chem. Res. Toxicol. 18:790-801 (2005)). […] All determinations used a batch of nominal 20 mL headspace vials with volumes pre-measured for sample uniformity (actual vial volume varied by <2.0% relative standard deviation (n=6)). […]
Respond with the bare value in %.

Below, each entry is followed by its recorded Relative N2O Yield (90 minutes incubation) result.
COMPOUND	MEASURED VALUE
Cc1ccc(S(=O)(=O)NO)o1 [Compound 1, N-Hydroxy-5-methylfuran-2-sulfonamide]	52
COCCN(C)C(=O)c1ccc(Cl)c(S(=O)(=O)NO)c1 [Compound 59]	82
Cc1oc(C)c(S(=O)(=O)NO)c1C(=O)N1CCOCC1 [Compound 77]	14
Cc1oncc1S(=O)(=O)NO [Compound 3]	45

Bench note: what Relative N2O Yield (90 minutes incubation) did O=S(=O)(NO)c1cccc(OC(F)(F)F)c1 [Compound 92] show?
59

Bench note: what Relative N2O Yield (90 minutes incubation) did CC(C)NC(=O)c1cc(S(=O)(=O)NO)cs1 [Compound 5] show?
48

Bench note: what Relative N2O Yield (90 minutes incubation) did O=S(=O)(NO)c1cccc(S(=O)(=O)NO)c1 [Compound 88] show?
53

Bench note: what Relative N2O Yield (90 minutes incubation) did CCS(=O)(=O)c1ccccc1S(=O)(=O)NO [Compound 72] show?
97

Bench note: what Relative N2O Yield (90 minutes incubation) did Cc1cc(C)c(C)c(S(=O)(=O)NO)c1C [Compound 53] show?
70

Bench note: what Relative N2O Yield (90 minutes incubation) did CS(=O)(=O)c1csc(S(=O)(=O)NO)c1 [Compound 16] show?
86
